Test system: inflammatory cells in bronchoalveolar lavage fluid of mice
Test: Determination of inflammatory cells in bronchoalveolar lavage fluid of mice (OVA asthma model)
Format: in vivo, BALB/C mice
Set-up: unit not given here
Conditions: 20 mg/kg, oral
propertyName: Total inflammatory cells in bronchoalveolar lavage fluid
Would you mind answering with just the numeric figure?

{"columns": ["compound", "observed"],
 "data": [
  ["CC(C)=CCC[C@](C)(O[C@@H]1OC(CO)[C@@H](O)[C@H](O)C1O)C1CC[C@]2(C)C1C(=O)CC1[C@@]3(C)CC[C@H](O)C(C)(C)C3CC[C@]12C (stereo partly shown)", 25.18],
  ["CC(=O)O[C@H]1CC[C@@]2(C)C(CC[C@]3(C)C2CC(=O)C2C([C@](C)(CCC=C(C)C)O[C@@H]4OC(CO)[C@@H](O)[C@H](O)C4O)CC[C@]23C)C1(C)C (stereo partly shown)", 26.93],
  ["CC(C)=CCC[C@](C)(O[C@H]1OC(CO)[C@@H](O)[C@H](O)C1O)C1CC[C@]2(C)C1C(=O)CC1[C@@]3(C)CC[C@H](O)C(C)(C)C3CC[C@]12C (stereo partly shown)", 29.46]
]}

Give the measured Total inflammatory cells in bronchoalveolar lavage fluid for CC(C)=CCC[C@](C)(O[C@@H]1OC(CO)[C@H](O)[C@H](O)C1O)C1CC[C@]2(C)C1C(=O)CC1[C@@]3(C)CC[C@H](O)C(C)(C)C3CC[C@]12C (stereo partly shown)
32.95

Give me measured Total inflammatory cells in bronchoalveolar lavage fluid, please, for this compound: CC(C)=CCC[C@](C)(O[C@@H]1O[C@H](CO)[C@@H](O)[C@H](O)[C@H]1O)[C@H]1CC[C@]2(C)[C@@H]1[C@H](O)C[C@@H]1[C@@]3(C)CC[C@H](O)C(C)(C)[C@@H]3CC[C@]12C [CK, ginsenoside compound K, reference compound]
24.87

Read off the recorded Total inflammatory cells in bronchoalveolar lavage fluid for CC(C)=CCC[C@](C)(O[C@@H]1OC(CO)[C@@H](O)[C@H](O)C1O)C1CC[C@]2(C)C1/C(=N\O)CC1[C@@]3(C)CC/C(=N\O)C(C)(C)C3CC[C@]12C (stereo partly shown)
32.46

Dear colleague, please send me the reported Total inflammatory cells in bronchoalveolar lavage fluid for COC(=O)C1O[C@@H](O[C@@](C)(CCC=C(C)C)C2CC[C@]3(C)C2C(=O)CC2[C@@]4(C)CC[C@H](OC(C)=O)C(C)(C)C4CC[C@]23C)C(O)[C@@H](O)[C@@H]1O (stereo partly shown) when you can.
28.11

====

System: inflammatory cells in bronchoalveolar lavage fluid of mice
Assay: Determination of inflammatory cells in bronchoalveolar lavage fluid of mice (OVA asthma model)
Format: in vivo, BALB/C mice
Design: unit not given here
Conditions: 20 mg/kg, oral
propertyName: Neutral cells in bronchoalveolar lavage fluid
Enter a number only.

Give reported Neutral cells in bronchoalveolar lavage fluid value for CC(C)=CCC[C@](C)(O[C@@H]1OC(CO)[C@@H](O)[C@H](O)C1O)C1CC[C@]2(C)C1/C(=N\O)CC1[C@@]3(C)CC/C(=N\O)C(C)(C)C3CC[C@]12C (stereo partly drawn)
7.38

State, in one line, measured Neutral cells in bronchoalveolar lavage fluid of CC(C)=CCC[C@](C)(O[C@@H]1O[C@H](CO)[C@@H](O)[C@H](O)[C@H]1O)[C@H]1CC[C@]2(C)[C@@H]1[C@H](O)C[C@@H]1[C@@]3(C)CC[C@H](O)C(C)(C)[C@@H]3CC[C@]12C [CK, ginsenoside compound K, reference compound]
8.78

Assign Neutral cells in bronchoalveolar lavage fluid to the following record: COC(=O)C1O[C@@H](O[C@@](C)(CCC=C(C)C)C2CC[C@]3(C)C2C(=O)CC2[C@@]4(C)CC[C@H](OC(C)=O)C(C)(C)C4CC[C@]23C)C(O)[C@@H](O)[C@@H]1O (stereo partly drawn)
3.95

Quick one: give measured Neutral cells in bronchoalveolar lavage fluid for CC(=O)O[C@H]1CC[C@@]2(C)C(CC[C@]3(C)C2CC(=O)C2C([C@](C)(CCC=C(C)C)O[C@@H]4OC(CO)[C@@H](O)[C@H](O)C4O)CC[C@]23C)C1(C)C (stereo partly drawn)
6.38

Given CC(C)=CCC[C@](C)(O[C@@H]1OC(CO)[C@H](O)[C@H](O)C1O)C1CC[C@]2(C)C1C(=O)CC1[C@@]3(C)CC[C@H](O)C(C)(C)C3CC[C@]12C (stereo partly drawn) , respond with its Neutral cells in bronchoalveolar lavage fluid.
8.16

Specify reported Neutral cells in bronchoalveolar lavage fluid for the compound shown: CC(C)=CCC[C@](C)(O[C@H]1OC(CO)[C@@H](O)[C@H](O)C1O)C1CC[C@]2(C)C1C(=O)CC1[C@@]3(C)CC[C@H](O)C(C)(C)C3CC[C@]12C (stereo partly drawn)
6.26

====

System: COPD rats induced by smoke exposure
Test: COPD induced by smoke exposure in rats: lung function FEV0.2/FVC
Type: in vivo, Wistar rats
Conditions: 80 mg/kg oral, 180 days
propertyName: FEV2/FVC % (FEV0.2/FVC %, forced expiratory index within 200 ms) (%)
Write it as a number; the unit % goes unstated.

{"columns": ["compound", "unitAbbreviation", "observed"],
 "data": [
  ["CC(C)=CCC[C@](C)(O[C@@H]1OC(CO)[C@H](O)[C@H](O)C1O)C1CC[C@]2(C)C1C(=O)CC1[C@@]3(C)CC[C@H](O)C(C)(C)C3CC[C@]12C (stereo partly drawn)", "%", 83.15],
  ["CC(C)=CCC[C@](C)(O[C@@H]1OC(CO)[C@@H](O)[C@H](O)C1O)C1CC[C@]2(C)C1C(=O)CC1[C@@]3(C)CC=CC(C)(C)C3CC[C@]12C (stereo partly drawn)", "%", 85.51],
  ["CC(C)=CCC[C@](C)(O[C@@H]1OC(C)[C@H](O)[C@H](O)C1O)C1CC[C@]2(C)C1[C@H](O)CC1[C@@]3(C)CC[C@H](O)C(C)(C)C3CC[C@]12C (stereo partly drawn)", "%", 85.56]
]}

Note down FEV2/FVC % (FEV0.2/FVC %, forced expiratory index within 200 ms) recorded for CC(C)=CCC[C@](C)(O[C@H]1OC(CO)[C@@H](O)[C@H](O)C1O)C1CC[C@]2(C)C1C(=O)CC1[C@@]3(C)CC[C@H](O)C(C)(C)C3CC[C@]12C (stereo partly drawn)
86.34

Give recorded FEV2/FVC % (FEV0.2/FVC %, forced expiratory index within 200 ms). CC(C)=CCC[C@](C)(O[C@@H]1OC(CO)[C@@H](O)[C@H](O)C1O)C1CC[C@]2(C)C1C(=O)CC1[C@@]3(C)CC[C@H](O)C(C)(C)C3CC[C@]12C (stereo partly drawn)
82.16

Could you please provide reported FEV2/FVC % (FEV0.2/FVC %, forced expiratory index within 200 ms) for CC(C)=CCC[C@](C)(O[C@@H]1OC[C@H](O)[C@H](O)C1O)C1CC[C@]2(C)C1[C@H](O)CC1[C@@]3(C)CC[C@H](O)C(C)(C)C3CC[C@]12C (stereo partly drawn) ? Thanks!
89.62

====

System: mouse asthma model induced by OVA
Experiment: Asthma induced by ovalbumin in Balb/c mice: IgE level in serum by ELISA
Type: in vivo
Conditions: Table 1-1 (1st time); 20 mg/kg, oral; 24 hours after last OVA stimulation
propertyName: Concentration of IgE in serum

{"columns": ["compound", "Concentration of IgE in serum"],
 "data": [
  ["CC(C)=CCC[C@](C)(O[C@H]1OC(CO)[C@@H](O)[C@H](O)C1O)C1CC[C@]2(C)C1C(=O)CC1[C@@]3(C)CC[C@H](O)C(C)(C)C3CC[C@]12C (stereo partly drawn) [ID]", "1336.96 ± 211.85 ng/mL"],
  ["CC(C)=CCC[C@](C)(O[C@@H]1OC(CO)[C@@H](O)[C@H](O)C1O)C1CC[C@]2(C)C1C(=O)CC1[C@@]3(C)CC[C@H](O)C(C)(C)C3CC[C@]12C (stereo partly drawn) [IB]", "1337.11 ± 216.28 ng/mL"],
  ["CC(C)=CCC[C@](C)(O[C@@H]1OC[C@@H](O)[C@H](O)C1O)C1CC[C@]2(C)C1[C@H](O)CC1[C@@]3(C)CC[C@H](O)C(C)(C)C3CC[C@]12C (stereo partly drawn) [IJ]", "1250.07 ± 144.38 ng/mL"],
  ["CC(C)=CCC[C@](C)(O[C@@H]1OC(CO)[C@@H](O)[C@H](O)C1O)C1CC[C@]2(C)C1C(=O)CC1[C@@]3(C)CC=CC(C)(C)C3CC[C@]12C (stereo partly drawn) [IH]", "1191.08 ± 107.59 ng/mL"]
]}

Determine from records and report Concentration of IgE in serum for CC(C)=CCC[C@](C)(O[C@@H]1OC(C)[C@H](O)[C@H](O)C1O)C1CC[C@]2(C)C1[C@H](O)CC1[C@@]3(C)CC[C@H](O)C(C)(C)C3CC[C@]12C (stereo partly drawn) [IK]
1020.78 ± 136.94 ng/mL

Answer with the recorded Concentration of IgE in serum of CC(C)=CCC[C@](C)(O[C@@H]1OC[C@H](O)[C@H](O)C1O)C1CC[C@]2(C)C1[C@H](O)CC1[C@@]3(C)CC[C@H](O)C(C)(C)C3CC[C@]12C (stereo partly drawn) [IL] only.
996.36 ± 102.45 ng/mL

Read off the recorded Concentration of IgE in serum for CC(C)=CCC[C@](C)(O[C@@H]1OC(CO)[C@H](O)[C@H](O)C1O)C1CC[C@]2(C)C1C(=O)CC1[C@@]3(C)CC[C@H](O)C(C)(C)C3CC[C@]12C (stereo partly drawn) [IC]
975.82 ± 260.32 ng/mL

State, in one line, measured Concentration of IgE in serum of CC(C)=CCC[C@](C)(O[C@@H]1OC(CO)[C@@H](O)[C@H](O)C1O)C1CC[C@]2(C)C1/C(=N\O)CC1[C@@]3(C)CC/C(=N\O)C(C)(C)C3CC[C@]12C (stereo partly drawn) [IVA]
1358.27 ± 248.70 ng/mL

Read the entry CC(C)=CCC[C@](C)(O[C@@H]1O[C@H](CO)[C@@H](O)[C@H](O)[C@H]1O)[C@H]1CC[C@]2(C)[C@@H]1[C@H](O)C[C@@H]1[C@@]3(C)CC[C@H](O)C(C)(C)[C@@H]3CC[C@]12C [CK, ginsenoside compound K, reference compound] and write its reported Concentration of IgE in serum.
1701.85 ± 284.66 ng/mL
